STUDY TARGET: Acetylcholinesterase (Electrophorus electricus, UniProt O42275)
Sequence (O42275 whole entry): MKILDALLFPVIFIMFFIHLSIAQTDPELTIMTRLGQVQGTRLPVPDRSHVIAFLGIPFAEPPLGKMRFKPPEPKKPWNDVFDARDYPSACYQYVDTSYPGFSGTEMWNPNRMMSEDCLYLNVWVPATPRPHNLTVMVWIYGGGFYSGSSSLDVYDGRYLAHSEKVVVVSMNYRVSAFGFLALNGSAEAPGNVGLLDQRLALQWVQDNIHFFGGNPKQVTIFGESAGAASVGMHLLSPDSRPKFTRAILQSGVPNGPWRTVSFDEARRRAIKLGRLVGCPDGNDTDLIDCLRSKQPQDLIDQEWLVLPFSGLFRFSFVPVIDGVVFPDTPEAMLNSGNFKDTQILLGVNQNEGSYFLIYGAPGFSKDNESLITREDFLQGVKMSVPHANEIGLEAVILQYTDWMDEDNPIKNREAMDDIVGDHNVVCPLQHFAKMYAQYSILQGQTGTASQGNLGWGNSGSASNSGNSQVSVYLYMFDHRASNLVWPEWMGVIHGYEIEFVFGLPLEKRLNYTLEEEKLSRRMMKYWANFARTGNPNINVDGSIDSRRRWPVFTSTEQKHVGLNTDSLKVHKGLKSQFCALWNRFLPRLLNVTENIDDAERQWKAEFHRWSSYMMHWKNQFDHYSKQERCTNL
PROPERTY MEASURED: pIC50
Note on units: pIC50 is unitless, being -log10 of a concentration expressed in mol/L.

CHEMICAL SMILES	pIC50
O=c1cc(OCCn2cc(COn3nnc4ccccc43)nn2)c2ccccc2o1	5.36
O=c1cc(OCCCn2cc(COn3nnc4ccccc43)nn2)c2ccccc2o1	5.88
O=c1ccc2ccc(OCCCn3cc(Cn4nnc5ccccc54)nn3)cc2o1	5.53

Entry `O=c1cc(OCCCCCCn2cc(Cn3nc4ccccc4n3)nn2)c2ccccc2o1` under Acetylcholinesterase (Electrophorus electricus, UniProt O42275) had pIC50 of 5.21

Bench note, Acetylcholinesterase (Electrophorus electricus, UniProt O42275): entry `O=c1cc(OCCCCCn2cc(Cn3nnc4ccccc43)nn2)c2ccccc2o1` , its pIC50 = 5.94
